Target Or System: TEAD3 YAP50-100 (Homo sapiens)
Sequence (Q99594 216-435 limits assumed): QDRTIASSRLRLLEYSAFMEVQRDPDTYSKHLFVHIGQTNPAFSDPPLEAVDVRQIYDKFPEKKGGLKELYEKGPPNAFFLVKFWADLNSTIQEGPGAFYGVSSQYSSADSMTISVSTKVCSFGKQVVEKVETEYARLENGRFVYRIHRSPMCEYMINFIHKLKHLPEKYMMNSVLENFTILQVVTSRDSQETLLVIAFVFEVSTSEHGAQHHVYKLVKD
Protocol Description: TEAD3:YAP50-100 protein-protein interaction HTRF (TR-FRET) assay
Recorded Conditions: His-tagged TEAD YAP binding domain (aa 217-447), biotinylated YAP peptide aa 50-100; 30 min pre-incubation, 60 min at room temperature; read-out: TEAD3 YAP50-100 HTRF WuXi EC50
pEC50: −log10 of the molar value.
Value Kind: pEC50

> print(dat)
                                   compound  value.kind   val
1  O=C(c1cnn2c(=O)cc(-c3ccc(C4CCCCC4)cc3)[nH]c12)N1CCC1       pEC50  7.64
2  CN(C)C(=O)c1cnn2c(=O)cc(-c3ccc(C4CCCC4(C)C)cc3)[nH]c12 (single isomer, unassigned) [Example 22]       pEC50  7.38

[a] CCOC(=O)c1cnn2c(=O)cc(-c3ccc(OC4CCCCC4)cc3)[nH]c12
[b] O=C(c1cnn2c(=O)cc(-c3ccc(C4CCCCC4)cc3)[nH]c12)N1CC(C(F)F)C1
(Q) Kindly identify which of a and b has the larger recorded pEC50 value. Mark your selection by writing its label.
(A) b
